experiment: Inhibition of rat intestinal alpha-glucosidase using para-nitrophenyl-alpha-D-glucopyranoside as substrate incubated for 5 min prior to substrate addition measured after 5 min by spectrophotometric analysis
Property Label: pIC50
Answers are plain numbers, as −log10 of the molar value.

Would you please look over these solved cases?
>>> print(df.to_string())
                             input_smiles  property_label  measured_result
0        O=C(/C=C/c1ccccc1)c1cc2ccoc2cc1O           pIC50             4.84
1  COc1ccc(/C=C/C(=O)c2ccc3occc3c2O)cc1OC           pIC50             5.30
2  COc1ccc(/C=C/C(=O)c2cc3ccoc3cc2O)cc1OC           pIC50             4.97

For every item below, please supply its pIC50.
1. O=C(/C=C/c1ccc(O)cc1)c1ccc2occc2c1O
2. COc1ccc(/C=C/C(=O)c2ccc3occc3c2O)c(OC)c1OC
3. COc1cc(OC)c(OC)cc1/C=C/C(=O)c1cc2ccoc2cc1O
4. O=C(/C=C/c1ccc(O)c(O)c1)c1ccc2occc2c1O

## Output
1: 4.96; 2: 4.76; 3: 4.87; 4: 4.82

For every item below, please supply its pIC50.
1. O=C(/C=C/c1ccc(O)c(O)c1)c1cc2ccoc2cc1O
2. COc1ccc(/C=C/C(=O)c2ccc3occc3c2O)cc1

## Output
1. 4.72
2. 5.04
